Field: growth. Provide a value for each of the compounds that follow.
system: IGROV1 ovarian; test: NCI-60 one-dose screen, 48 h (100 = growth as untreated, 0 = no growth, -100 = all killed); settings: 10 µM unless noted
Compounds without any hit were thinned out: in the full panel of roughly 83,000, 20% have a hit. The source made the active and inactive calls. Rule for the calls: active = growth percent below 10; inactive = the rest.

Write down measured growth (IGROV1 ovarian) for this compound. CC1=CC2(C)/C=C(C)/C=C\CC(O)/C=C3/C=CC(=C4C(=O)OC2(CC1C)C4=O)OC3 (centres undefined)
-49.1% (active)

Write down measured growth (IGROV1 ovarian) for this compound. C(=C\c1n(Cc2ccc3ccccc3c2)c(-c2ccccc2)c(-c2ccccc2)[n+]1Cc1ccc2ccccc2c1)/c1ccccc1
-81.4% (active)

Write down measured growth (IGROV1 ovarian) for this compound. CSc1nnc2c(=O)n(C)c(=O)n(C)c2n1
101% (inactive)

Write down measured growth (IGROV1 ovarian) for this compound. COc1ccc(/C=C/C(=O)c2ccc(OC)c(OC)c2)cc1O
74.5% (inactive)

Write down measured growth (IGROV1 ovarian) for this compound. COc1ccc(C(=O)c2cc3c(N)c(C(=O)Nc4cccc(OC)c4)sc3nc2C)cc1
37.6% (inactive)

Write down measured growth (IGROV1 ovarian) for this compound. COc1ccc2c(/C=C3/C(=O)NC(=S)NC3C)cc(=O)oc2c1 (centres undefined)
96.2% (inactive)

Write down measured growth (IGROV1 ovarian) for this compound. COC(=O)CCCCCCCCC1(C)C=CC(C(C)O)=CC1 (centres undefined)
99.7% (inactive)

Write down measured growth (IGROV1 ovarian) for this compound. Clc1ccc(N2N=C(c3cccc(Nc4ccncc4)c3)CC2c2ccc3c(c2)OCO3)cc1 (centres undefined)
20.7% (inactive)

Write down measured growth (IGROV1 ovarian) for this compound. Cc1ccc(-c2c(Br)c(OC(=O)CO[C@@H]3C[C@H](C)CC[C@H]3C(C)C)c(-c3ccc(C)cc3C)c(Br)c2OC(=O)CO[C@H]2C[C@@H](C)CC[C@@H]2C(C)C)c(C)c1
108% (inactive)

###

tested on: SF-268 CNS; test: NCI-60 one-dose screen, 48 h; details: 10 µM unless noted
This is part of a sample that, as a whole, favours compounds with a hit. Of some 83,000 tested, about 20% had one in any assay. Calls of active or inactive are those of the source. Rule for the calls: active = growth percent below 10; inactive = the rest.
Bench note: report the call from Y (active), N (inactive)

Tell me the recorded outcome of this test for Cc1ccc2[nH]c(=O)cc(-n3nncc3COc3ccc(C=O)cc3)c2c1 .
N

Tell me the recorded outcome of this test for Cc1cc(Nc2cccc(C(F)(F)F)c2)n2c(nc3ccccc32)c1C#N .
N

Tell me the recorded outcome of this test for Cn1c(COC(=O)N2CCCCC2)nc2c(N3CCOCC3)nc(-c3ccccc3)nc21 .
Y

Tell me the recorded outcome of this test for CS(=O)(=O)OCCN(CCOS(C)(=O)=O)c1ccc(/C=N/Nc2ccc([N+](=O)[O-])cc2[N+](=O)[O-])cc1 .
N

Tell me the recorded outcome of this test for COc1ccc(/C=N/NC(=O)c2cccc3cc[nH]c23)cc1O .
N

Tell me the recorded outcome of this test for COc1cccc(CCC(=O)c2cc3c(N)c(C(=O)Nc4ccccc4)sc3nc2C)c1 .
N

Tell me the recorded outcome of this test for COc1cc2nc(Cc3ccc(C)cc3)[nH]c(=O)c2cc1OC .
N

Tell me the recorded outcome of this test for O=C(O)C(/C=C/c1ccco1)=N\Nc1nc(-c2ccc(Cl)cc2)cs1 .
N

Tell me the recorded outcome of this test for O=C(Nc1nc2ccc(C(=O)N3CCN(c4ccc(Cl)c(Cl)c4)CC3)cc2s1)c1ccc(NCCc2ccccc2)c([N+](=O)[O-])c1 .
N

###

tested on: SF-268 CNS; experiment: NCI-60 one-dose screen, 48 h (100 = growth as untreated, 0 = no growth, -100 = all killed); settings: 10 µM unless noted
Compounds without any hit were thinned out: in the full panel of roughly 83,000, 20% have a hit.
Field: growth. Provide a value for each of the compounds that follow.
# value in %; strip the unit string

Consider the compound COc1ccc(/C(=C\c2ccccc2)C(=O)O)cc1OC . State its measured growth.
103

Consider the compound Cc1cc2nc(-c3ccccc3)c(-c3ccccc3)nc2cc1C . State its measured growth.
116

Consider the compound O=C(N/N=C/c1ccc(F)cc1)c1ccccc1Nc1cccc(C(F)(F)F)c1 . State its measured growth.
82.6

Consider the compound O=c1nc2n(nc1/C=C/c1ccco1)CC(c1ccc(Cl)cc1)=NN2 . State its measured growth.
109

Consider the compound COc1ccc(C2=C(c3ccccc3)c3ccc(OC(C)=O)cc3OC2(C)C)cc1 . State its measured growth.
102

Consider the compound CCOC(=O)N1CCN(CCCCl)CC1 . State its measured growth.
104

Consider the compound COc1ccc(Nc2nc(N)nc3c2CCc2occc2-3)cc1 . State its measured growth.
100

Consider the compound N#Cc1c(Nc2ccccc2)nn2cc(-c3nc4ccccc4s3)c(N)nc12 . State its measured growth.
70

Consider the compound Cc1ccccc1C(c1ccccc1)c1ccccc1C . State its measured growth.
99.7

Consider the compound Clc1nc(Cl)c2ncn(CCOCCn3cnc4c(Cl)nc(Cl)nc43)c2n1 . State its measured growth.
-83.3

Consider the compound COc1ccc(CNCCN2C(=O)c3ccc4c5c(ccc(c35)C2=O)C(=O)N(CCNCc2ccc(OC)cc2)C4=O)cc1 . State its measured growth.
-71.2

Consider the compound CC1NC(=S)NC(=O)/C1=C/c1cc(=O)oc2c1ccc1ccccc12 (centres undefined) . State its measured growth.
97

Consider the compound COc1cc2nc(-c3ccc(C(F)(F)F)cc3)cc(OCCN3CCCC3)c2cc1OC . State its measured growth.
81

Consider the compound CCC(C)C(N)C(=O)NNc1n[nH]c(=S)n1N (centres undefined) . State its measured growth.
98.2

Consider the compound CCN(CCNc1cc(OC)cc2cccnc12)CCc1ccccc1 . State its measured growth.
84

Consider the compound Cc1c(C(=O)NO)sc2ncnc(Nc3ccc(NC(=S)Nc4ccccc4)cc3)c12 . State its measured growth.
98.2

Consider the compound Cn1c(COC(=O)NCCN2CCOCC2)nc2c(N3CCOCC3)nc(-c3ccccc3)nc21 . State its measured growth.
-36.8

Consider the compound CCCCCCCCOc1ccc(/C=N/Nc2cc(C)nc3ccc(Cl)cc23)cc1 . State its measured growth.
104

Consider the compound CC(N)C(=O)NNc1n[nH]c(=S)n1N (centres undefined) . State its measured growth.
94.2

Consider the compound COc1cccc(NC(=O)c2cccc(-c3cc(=O)c4c(OC)c(OC)c(OC)cc4o3)c2)c1 . State its measured growth.
63.1

Consider the compound COc1cnccc1-c1nc2ccc3[nH]ncc3c2c2c1CCCC2 . State its measured growth.
61.3

Consider the compound COc1ccc(/C=C/C(=O)c2ccc(Nc3ncnc4ccccc34)cc2)cc1OC . State its measured growth.
68.1

Consider the compound CC(=O)N1c2ccccc2NC2=C(C(=O)N(C)C2(C)C)C1C (centres undefined) . State its measured growth.
43

Consider the compound COc1cc(CNC(=O)CCCCC[P+](c2ccccc2)(c2ccccc2)c2ccccc2)c(OC)c2c1OCO2 . State its measured growth.
66.9

Consider the compound Cc1c(C2=CCCCC2)c2ccccn2c1C(=O)c1cccc(S(=O)(=O)N2CCOCC2)c1 . State its measured growth.
75

Consider the compound CC(=O)OCC(=O)C1(O)C(C)CC2C3C=C(C)C4=Cc5c(cnn5-c5ccccc5)CC4(C)C3C(O)CC21C (centres undefined) . State its measured growth.
31.1

Consider the compound O=C(Nc1ccc2ncnc(Nc3ccc(Oc4cccc(F)c4)c(Cl)c3)c2c1)c1ccc(CNCCO)cc1 . State its measured growth.
56

Consider the compound Nc1c(C(=O)Nc2cccc3ccncc23)sc2nc3c(cc12)C(=O)CCC3 . State its measured growth.
55.1

Consider the compound O=S(=O)(c1cccc(NC2=Nc3cccc4cccc2c34)c1)N1CCCC1 . State its measured growth.
79.1

###

tested on: DU-145 prostate; assay: NCI-60 one-dose screen, 48 h; details: 10 µM unless noted
About 83,000 compounds went through this panel and 20% of them were active in at least one assay; those are over-represented in the sample as a whole. Activity calls are given as the source filed them. The calls were made as follows: active = growth percent below 10; inactive = the rest.
Bench note: report the call from t for active, f for inactive

Tell me the recorded outcome of this test for COc1ccc(-c2nc(N/N=C/c3c[nH]c4ccccc34)nc(N3CCOCC3)c2C#N)cc1 .
f

Tell me the recorded outcome of this test for COc1cccc2cc(-c3cc4ccccc4[nH]3)/c(=N/C(=S)Nc3ccc(C)cc3)oc12 .
f

Tell me the recorded outcome of this test for CC1(C)CC[C@]2(C(=O)NCC#CCN3CCOCC3)CC[C@]3(C)C(=CC[C@@H]4[C@@]5(C)Cc6c([nH]c7ccccc67)C(C)(C)[C@@H]5CC[C@]43C)[C@@H]2C1 .
f

Tell me the recorded outcome of this test for Fc1ccc(C2CC(c3cccc(Nc4ccncc4)c3)=NN2c2ccc(Cl)cc2)cc1 (stereo not drawn) .
f

Tell me the recorded outcome of this test for CC(=O)[C@@H]1CC[C@]2(C(N)=O)CC[C@]3(C)[C@H](CC[C@@H]4[C@@]5(C)CCC(=O)C(C)(C)[C@@H]5CC[C@]43C)[C@@H]12 .
f

Tell me the recorded outcome of this test for CCOC(=O)C1CC(=O)c2cc(OC)c(OC)cc2C1 (stereo not drawn) .
f

Tell me the recorded outcome of this test for COc1ccc2nc(N=Nc3c(O)ccc4ccccc34)sc2c1 .
f

Tell me the recorded outcome of this test for NC(=O)C1(N2CCCCC2)CCN(CCCC(=O)c2ccc(F)cc2)CC1 .
t
